Provide the recorded interaction score for the entries that follow.
# assayed_target: T1, 4H754-bH
# T1 chain: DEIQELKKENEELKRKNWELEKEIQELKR
# test: two-hybrid library CCNG1;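 note: natural log of median RNA to DNA barcode read ratio; higher means stronger binding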
Answers are plain numbers.

Dear reader, for each entry below, please note its interaction score.
1. DKNQELEKKIEELERENWELKKEIQELKR [4H3354-bH]
2. DKNQELEKEIEELKRKNWELEKEIQELER [4H3185-bH]
3. DEIQELEKKNEELKREIWELEKKIQELKR [4H454-bH]

1: -0.2; 2: -1.15; 3: 0.236
